measured on: IDH1 R132H (Homo sapiens (Human), UniProt O75874, R132H)
Sequence (O75874 whole entry R132H): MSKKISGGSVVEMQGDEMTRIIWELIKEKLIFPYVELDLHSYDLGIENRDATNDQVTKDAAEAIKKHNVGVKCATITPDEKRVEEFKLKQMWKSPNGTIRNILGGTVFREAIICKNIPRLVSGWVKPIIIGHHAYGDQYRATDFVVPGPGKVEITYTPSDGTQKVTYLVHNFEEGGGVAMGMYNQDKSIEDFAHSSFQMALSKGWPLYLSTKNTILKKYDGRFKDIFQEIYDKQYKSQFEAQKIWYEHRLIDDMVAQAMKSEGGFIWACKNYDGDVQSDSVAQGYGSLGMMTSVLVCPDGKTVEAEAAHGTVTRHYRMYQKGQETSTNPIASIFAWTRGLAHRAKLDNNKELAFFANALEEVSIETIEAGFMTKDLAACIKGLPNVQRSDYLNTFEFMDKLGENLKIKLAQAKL
assay overview: Assays for IDH1 R132H Inhibitors (NADPH/aKG, resazurin detection)
Type: biochemical
experimental parameters: IDH1 R132H enzyme, Table 2; read-out: IDHR132H Activity
pIC50: −log10 of the molar value.
measurement label: pIC50

compound | reported measurement
CC(C)[C@@H]1CN(c2nc(C3CC3)c3c(c2C#N)CC(C)(C)OC3)CCN1C(=O)Cc1cccnc1 [Compound 265] | > 6.30
CC(C)c1nc(N2CCN(C(=O)c3ccc(Cl)cc3Cl)[C@H](C)C2)c(C#N)c2c1COC(C)(C)C2 [Compound 166] | 5.00 to 6.00
CC(C)c1nc(N2CCN(C(=O)Cc3cccs3)[C@H](C(C)C)C2)c(C#N)c2c1COC(C)(C)C2 [Compound 195] | > 6.30
Cc1occc1C(=O)N1CCN(c2nc(C(C)C)c3c(c2C#N)CC(C)(C)OC3)C(c2ccccc2)C1 (stereo not drawn) [Compound 179] | 5.00 to 6.00
C[C@@H]1CN(c2nc(C3CCCCC3)c3c(c2C#N)CCOC3)CCN1C(=O)Cc1ccccn1 [Compound 238] | 5.00 to 6.00
CC(C)[C@@H]1CN(c2nc(C3CC3)c3c(c2C#N)CC(C)(C)OC3)CCN1C(=O)COCc1ccco1 [Compound 404] | 5.00 to 6.00
Cc1ccoc1C(=O)N1CCN(c2nc(C3CCCCC3)c3c(c2C#N)CCOC3)C[C@H]1C [Compound 186] | 5.00 to 6.00
CC(=O)N1CCN(c2nc(C3CC3)c3c(c2C#N)CC(C)(C)OC3)C[C@H]1C(C)C [Compound 352] | 6.00 to 6.30

Inquiry: Using the record for N#Cc1c(N2CCN(C(=O)c3c[nH]c4ccccc34)CC2)nc(C2CCCCC2)c2c1CCOC2 [Compound 118] , report its pIC50.
Reply text: 5.00 to 6.00

Inquiry: Request the reported pIC50 associated with CC(C)c1nc(N2CCN(C(=O)Cc3ccccc3F)[C@H](C)C2)c(C#N)c2c1COC(C)(C)C2 [Compound 219]
Reply text: 5.00 to 6.00

Inquiry: Which pIC50 is reported for this compound? C[C@@H]1CN(c2nc(C3CCCCC3)c3c(c2C#N)CC(C)(C)OC3)CCN1C(=O)Cc1cccs1 [Compound 153]
Reply text: 5.00 to 6.00

Inquiry: What value of measured pIC50 is listed for CC1(C)Cc2c(C#N)c(N3CCN(C(=O)c4ccoc4)[C@@H](c4ccccc4)C3)nc(C3CC3)c2CO1 [Compound 275] ?
Reply text: 5.00 to 6.00

Inquiry: Which pIC50 is listed for Cc1ccc(NC(=O)N2CCN(c3nc(C4CCCCC4)c4c(c3C#N)CCOC4)C[C@H]2C)cc1 [Compound 280] ?
Reply text: 5.00 to 6.00

Inquiry: So what's the measured pIC50 for this one? CC1(C)Cc2c(C#N)c(N3CCN(C(=O)c4ccco4)[C@H](c4ccccc4)C3)nc(C3CC3)c2CO1 [Compound 272]
Reply text: 6.00 to 6.30

Inquiry: Look up pIC50: COC(=O)N1CCN(c2nc(C3CC3)c3c(c2C#N)CC(C)(C)OC3)C[C@H]1C(C)C [Compound 346]
Reply text: > 6.30
